Entry source: PubChem BioAssay AID2060358

Tested on: 254851-301-R-J1-PDC spheroids, viability % test/control;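 further: spheroids exposed to drugs for seven days before viability readout; 100% = DMSO vehicle control viability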
Assay: Anticancer human tumor 254851-301-R-J1-PDC patient-derived colon carcinoma cell line growth inhibition [TAK]
Settings: second compound 3 µM; first compound 0.000316 µM; active compounds read low; spheroids with HUVEC and MSC
Procedure: Combinatorial screen of targeted agents with TAK-243 and ipatasertib in multi-cell type tumor spheroids […] Compounds. […] If the clinical Cmax for an agent had not been determined, the highest concentration tested was 10 microM. NCI60 Cell Culture. […] The optimal seeding densities for each of the cell lines at each time point assessed were determined prior to performing the concentration response studies. […]
Attribute: viability, T/C

Known viability, T/C results, listed for orientation:
COC1CC2CCC(C)C(O)(O2)C(=O)C(=O)N2CCCCC2C(=O)OC(C(C)CC2CCC(OCCO)C(OC)C2)CC(=O)C(C)C=C(C)C(O)C(OC)C(=O)C(C)CC(C)C=CC=CC=C1C (centres undefined) + CC(C)NCC(C(=O)N1CCN(c2ncnc3c2C(C)CC3O)CC1)c1ccc(Cl)cc1    102%
CC(C)CC(NC(=O)CNC(=O)c1cc(Cl)ccc1Cl)B1OC(=O)CC(CC(=O)O)(C(=O)O)O1 (centres undefined) + CC(C)NCC(C(=O)N1CCN(c2ncnc3c2C(C)CC3O)CC1)c1ccc(Cl)cc1    95.8%
CC(C)CC(NC(=O)C(Cc1ccccc1)NC(=O)c1cnccn1)B(O)O (centres undefined) + CC(C)NCC(C(=O)N1CCN(c2ncnc3c2C(C)CC3O)CC1)c1ccc(Cl)cc1    110%

# ---- query molecule ----
Item CC(C)n1nc(-c2ccc3oc(N)nc3c2)c2c(N)ncnc21 + CC(C)NCC(C(=O)N1CCN(c2ncnc3c2C(C)CC3O)CC1)c1ccc(Cl)cc1 has what recorded viability, T/C? 100%
